Items are presented alongside their recorded solubility at 4 h.
- Assay Notes: Aqueous solubility of the compound in 0.1 M boric acid buffer at pH 9 after 4 hrs by HPLC analysis
- Assay type: physicochemical

Example compounds with recorded solubility at 4 h:
-- ask Give the reported solubility at 4 h for this compound. COc1ccc2c(c1)c(CC(=O)OCc1oc(=O)oc1C)c(C)n2C(=O)c1ccc(Cl)cc1
-- reply < 0.0638 µg/mL

-- ask Give the reported solubility at 4 h for this compound. COc1ccc2c(c1)c(CC(=O)OCOC(=O)OC(C)C)c(C)n2C(=O)c1ccc(Cl)cc1
-- reply < 0.119 µg/mL

-- ask Give the reported solubility at 4 h for this compound. COc1ccc2c(c1)c(CC(=O)OCCOC(C)=O)c(C)n2C(=O)c1ccc(Cl)cc1
-- reply < 0.111 µg/mL

# ---- query compound ----
-- ask Give the reported solubility at 4 h for this compound. COc1ccc2c(c1)c(CC(=O)OCOC(=O)C(C)(C)C)c(C)n2C(=O)c1ccc(Cl)cc1
-- reply < 0.084 µg/mL

###

- Assay Notes: Chemical stability of the compound at 0.2 M hydrochloric acid buffer assessed as hydrolysis to parent compound at pH 1 after 4 hrs by HPLC analysis
- Format: physicochemical
- Settings: pH 1, 4 h
Items are presented alongside their recorded Stability.
Express the result in µg/mL but write the number alone.

-- ask Give the reported Stability for this molecule. COc1ccc2c(c1)c(CC(=O)OCc1oc(=O)oc1C)c(C)n2C(=O)c1ccc(Cl)cc1
-- reply 0.0191

-- ask Give the reported Stability for this molecule. COc1ccc2c(c1)c(CC(=O)OCOC(=O)OC(C)C)c(C)n2C(=O)c1ccc(Cl)cc1
-- reply 0.01

-- ask Give the reported Stability for this molecule. COc1ccc2c(c1)c(CC(=O)OCCOC(C)=O)c(C)n2C(=O)c1ccc(Cl)cc1
-- reply 0.0103

Next:
-- ask Give the reported Stability for this molecule. COc1ccc2c(c1)c(CC(=O)OCOC(=O)C(C)(C)C)c(C)n2C(=O)c1ccc(Cl)cc1
-- reply 0.021

###

- Assay Notes: Aqueous solubility of the compound in 0.1 M phosphate buffer at pH 5.2 after 4 hrs by HPLC analysis
- Assay type: physicochemical
Assay Readout: solubility at 4 h

Example compounds with recorded solubility at 4 h:
-- ask Give the reported solubility at 4 h for this compound. COc1ccc2c(c1)c(CC(=O)OCc1oc(=O)oc1C)c(C)n2C(=O)c1ccc(Cl)cc1
-- reply < 0.0638 µg/mL

-- ask Give the reported solubility at 4 h for this compound. COc1ccc2c(c1)c(CC(=O)OCOC(=O)OC(C)C)c(C)n2C(=O)c1ccc(Cl)cc1
-- reply < 0.119 µg/mL

-- ask Give the reported solubility at 4 h for this compound. COc1ccc2c(c1)c(CC(=O)OCOC(=O)C(C)(C)C)c(C)n2C(=O)c1ccc(Cl)cc1
-- reply < 0.084 µg/mL

# ---- query compound ----
-- ask Give the reported solubility at 4 h for this compound. COc1ccc2c(c1)c(CC(=O)OCCOC(C)=O)c(C)n2C(=O)c1ccc(Cl)cc1
-- reply < 0.111 µg/mL

###

- Assay Notes: Chemical stability of the compound at 0.1 M boric acid buffer assessed as hydrolysis to parent compound at pH 9 after 4 hrs by HPLC analysis
- Type: physicochemical
- Settings: pH 9, 4 h
Items are presented alongside their recorded Stability.
Express the result in µg/mL but write the number alone.

Example compounds with recorded Stability:
-- ask Give the reported Stability for this compound. COc1ccc2c(c1)c(CC(=O)OCOC(=O)OC(C)C)c(C)n2C(=O)c1ccc(Cl)cc1
-- reply 0.2461

-- ask Give the reported Stability for this compound. COc1ccc2c(c1)c(CC(=O)OCCOC(C)=O)c(C)n2C(=O)c1ccc(Cl)cc1
-- reply 0.369

-- ask Give the reported Stability for this compound. COc1ccc2c(c1)c(CC(=O)OCc1oc(=O)oc1C)c(C)n2C(=O)c1ccc(Cl)cc1
-- reply 0.5106

Next:
-- ask Give the reported Stability for this compound. COc1ccc2c(c1)c(CC(=O)OCOC(=O)C(C)(C)C)c(C)n2C(=O)c1ccc(Cl)cc1
-- reply 2.187

###

- Assay Notes: Partition coefficient, log P of the compound in 1-octanol-citric acid buffer at pH 3 by HPLC analysis
- Type: physicochemical
Items are presented alongside their recorded logD.
Enter a number only.

-- ask Give the reported logD for this compound. COc1ccc2c(c1)c(CC(=O)OCOC(=O)OC(C)C)c(C)n2C(=O)c1ccc(Cl)cc1
-- reply 5.1

-- ask Give the reported logD for this compound. COc1ccc2c(c1)c(CC(=O)O)c(C)n2C(=O)c1ccc(Cl)cc1
-- reply 4.2

-- ask Give the reported logD for this compound. COc1ccc2c(c1)c(CC(=O)OCOC(=O)C(C)(C)C)c(C)n2C(=O)c1ccc(Cl)cc1
-- reply 4.6

-- ask Give the reported logD for this compound. COc1ccc2c(c1)c(CC(=O)OCCOC(C)=O)c(C)n2C(=O)c1ccc(Cl)cc1
-- reply 4.2

# ---- query compound ----
-- ask Give the reported logD for this compound. COc1ccc2c(c1)c(CC(=O)OCc1oc(=O)oc1C)c(C)n2C(=O)c1ccc(Cl)cc1
-- reply 4.5

###

- Assay Notes: Chemical stability of the compound at 0.2 M phosphate buffer assessed as hydrolysis to parent compound at pH 7.4 after 4 hrs by HPLC analysis
- Assay type: physicochemical
- Settings: pH 7.4, 4 h
Assay Readout: Stability (µg/mL)
Express the result in µg/mL but write the number alone.

Example molecules with recorded Stability:
-- ask Give the reported Stability for this molecule. COc1ccc2c(c1)c(CC(=O)OCOC(=O)C(C)(C)C)c(C)n2C(=O)c1ccc(Cl)cc1
-- reply 0.294

-- ask Give the reported Stability for this molecule. COc1ccc2c(c1)c(CC(=O)OCc1oc(=O)oc1C)c(C)n2C(=O)c1ccc(Cl)cc1
-- reply 0.0101

-- ask Give the reported Stability for this molecule. COc1ccc2c(c1)c(CC(=O)OCCOC(C)=O)c(C)n2C(=O)c1ccc(Cl)cc1
-- reply 0.0093

Next:
-- ask Give the reported Stability for this molecule. COc1ccc2c(c1)c(CC(=O)OCOC(=O)OC(C)C)c(C)n2C(=O)c1ccc(Cl)cc1
-- reply 0.01332

###

- Assay Notes: Chemical stability of the compound at 0.1 M phosphate buffer assessed as hydrolysis to parent compound at pH 5.2 after 4 hrs by HPLC analysis
- Type: physicochemical
- Settings: pH 5.2, 4 h
Items are presented alongside their recorded Stability.
Express the result in µg/mL but write the number alone.

Example compounds with recorded Stability:
-- ask Give the reported Stability for this compound. COc1ccc2c(c1)c(CC(=O)OCOC(=O)C(C)(C)C)c(C)n2C(=O)c1ccc(Cl)cc1
-- reply 0.1525

-- ask Give the reported Stability for this compound. COc1ccc2c(c1)c(CC(=O)OCOC(=O)OC(C)C)c(C)n2C(=O)c1ccc(Cl)cc1
-- reply 0.01379

-- ask Give the reported Stability for this compound. COc1ccc2c(c1)c(CC(=O)OCCOC(C)=O)c(C)n2C(=O)c1ccc(Cl)cc1
-- reply 0.0197

Next:
-- ask Give the reported Stability for this compound. COc1ccc2c(c1)c(CC(=O)OCc1oc(=O)oc1C)c(C)n2C(=O)c1ccc(Cl)cc1
-- reply 0.0244
